B1: TPR 5TU (parent)
chain: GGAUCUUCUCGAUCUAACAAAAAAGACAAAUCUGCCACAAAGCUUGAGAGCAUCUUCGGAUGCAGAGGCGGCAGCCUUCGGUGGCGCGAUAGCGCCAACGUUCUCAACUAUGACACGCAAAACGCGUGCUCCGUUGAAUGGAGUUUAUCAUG

- Variants of: B1
- Assay: polymerase ribozyme fitness, log enrichment relative to wild type (log ratio); higher = more active; in vitro selection for triplet polymerase activity
Fewer inactive variants are shown than the library holds.
Measured property: polymerase ribozyme fitness (log ratio)

Example cases with answers are listed next.
Mutant id	Measured property	Measured result
C63U G68A G83C A115C U144C C149A	polymerase ribozyme fitness (log ratio)	≤ -4.2
A24U A52C	polymerase ribozyme fitness (log ratio)	-0.457
G65A A89U G94U	polymerase ribozyme fitness (log ratio)	-2.57

We now examine a further variant.
Using the record for G140C U144G , report its polymerase ribozyme fitness (log ratio). -3.51
